Hey, just so you know, these numbers are from patent US4570006A.

Test system: complement
METHOD NOTES: Inhibition of complement mediated hemolysis
Assay type: cell-based
CONDITION NOTES: compound at 1 × 10^-6
Below, each of the compounds is paired with its reported Inhibition of complement mediated hemolysis (%) value.
Unit % implied. Number only.

These solved cases illustrate the format of a correct answer.
                                   compound  unit_spec  numeric_readout
0  COC(=O)c1ccc(C(=O)Oc2ccc(C(=N)N)cc2C(=O)c2ccccc2)cc1 [Compound 50]          %              6.9
1  Cc1ccc(C(=O)Oc2ccc(C(=N)N)cc2[N+](=O)[O-])cc1 [Compound 37]          %             16.0
2  N=C(N)Nc1ccc(C(=O)Oc2ccc(C(=N)N)cc2C(=O)c2ccccc2)c(Cl)c1 [Compound 77]          %              1.8
3  CC=CC=CC(=O)Oc1ccc(C(=N)N)cc1C(=O)c1ccccc1 [Compound 6]          %             52.9
4  COc1cccc(CC(=O)Oc2ccc(C(=N)N)cc2OC)c1 [Compound 43]          %              3.7
5  N=C(N)c1ccc(OC(=O)C2CC2)c([N+](=O)[O-])c1 [Compound 7]          %             10.2

Ask | Please look up its Inhibition of complement mediated hemolysis (%): CC(C)Cc1ccc(C(C)C(=O)Oc2ccc(C(=N)N)cc2C(=O)c2ccccc2)cc1 (stereo not drawn) [Compound 40]
Reply | 7.8

Ask | Query: Inhibition of complement mediated hemolysis (%); subject: CC(=O)Oc1ccc(C(=N)N)cc1C(=O)c1ccccc1 [Compound 1, 4-amidino-2-benzoylphenyl acetate]
Reply | 16.0

Ask | Query (compound): CN(C(=N)N)c1ccc(C(=O)Oc2ccc(C(=N)N)cc2C(=O)c2ccccc2)cc1 [Compound 78] ; field requested: Inhibition of complement mediated hemolysis (%)
Reply | 7.0

* * *

Reported IC50 values, Clr (Homo sapiens).
Could you give me the number in µM? Just the number is fine.

Sample answers from the record:
In [3]: df
Out[3]:
                                   molecule  numeric_readout
0  N=C(N)c1ccc(OC(=O)c2ccc(OCc3ccccc3)cc2)c(C(=O)c2ccccc2)c1 [Compound 45]              0.9
1  COc1cc(C(=N)N)ccc1OC(=O)c1ccc(C)cc1 [Compound 35]              0.4
2  Cc1ccc(C(=O)Oc2ccc(C(=N)N)cc2[N+](=O)[O-])cc1 [Compound 37]             0.04
3  COC(=O)c1cc(C(=N)N)ccc1OC(=O)c1ccc(CN)cc1 [Compound 60]                3

Ask | For Clr (Homo sapiens), provide IC50 of N=C(N)c1ccc(OC(=O)c2ccccc2)c(C(=O)c2ccccc2)c1 [Compound 29, 4-amidino-2-benzoylphenyl benzoate] please.
Reply | 3

* * *

Each entry below carries its reported IC50.
SYSTEM UNDER TEST: Thrombin (Homo sapiens)
METHOD NOTES: biochemical
CONDITION NOTES: TAME hydrolysis; read-out: ID50, thrombin
Unit µM implied. Number only.

Illustrative cases are given below, each with its answer.
In [3]: df
Out[3]:
                              smiles_record  measured_endpoint  numeric_readout
0  N=C(N)Nc1ccc(C(=O)Oc2ccc(C(=N)N)cc2[N+](=O)[O-])cc1               IC50              0.5
1  COC(=O)c1cc(C(=N)N)ccc1OC(=O)c1ccc(CNC(=O)OCc2ccccc2)cc1               IC50                4
2  N=C(N)Nc1ccc(C(=O)Oc2ccc(C(=N)N)cc2C(=O)c2ccccc2)cc1               IC50              0.2

Ask | Form field: IC50 recorded for `N=C(N)c1ccc(OC(=O)c2ccccc2)c(S(=O)(=O)O)c1` with Thrombin (Homo sapiens) (enter value)
Reply | 3
